Recorded values, source PubChem BioAssay AID620.

assay: HT1080 cell viability loss – fluorescence readout (AID 620); conditions: at 10 µM, stronger effect = higher value;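 further: cells exposed to compound overnight then 4 h with Alamar Blue; 0% = vehicle DMSO and 100% = killing control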
The whole screen tested about 87,000 compounds, of which about 360 (0.41%) were called active. Only a selection was taken, and actives are over-represented in it overall.
quantity: cytotoxicity (%)
Report as a plain number; the unit % is understood.

Example cases with answers are listed next.
>>> df
                                   molecule  recorded_result
0       COc1ccc(C(=O)c2ccc(OC)c(OC)c2)cc1OC             14.8
1  COc1ccccc1N(C(=O)c1snc(C(N)=O)c1N)C(C(=O)NC1CCCC1)c1ccco1 (stereo unspecified)             -5.3
2    CN1CC[n+]2c(CN3C(=O)c4ccccc4C3=O)csc21             15.5

Q: Look up cytotoxicity of CCOC(=O)c1[nH]c(C)c(C(=O)OCC(=O)N2CCc3ccccc32)c1C and report it.
A: 6.7

Q: Return cytotoxicity for the following molecule: COC(=O)C1=C(C)Nc2nnnn2C1c1cccnc1 (stereo unspecified)
A: 10

Q: # return recorded cytotoxicity for entry c1ccc(-c2cc(-c3nc(-c4ccccn4)no3)c3ccccc3n2)cc1
A: -10.1

* * *

experiment: HT1080 cell viability loss – fluorescence readout (AID 620); conditions: at 10 µM, stronger effect = higher value
Screen size: about 87,000 compounds; about 360 (0.41%) were called active. For the sample, actives were picked, then their nearest neighbours and some compounds at random.
quantity: cytotoxicity (%)
Answer format: numeric, % implied, no suffix.

Consider the worked cases shown below.
                                   compound      quantity  recorded_result
0                 COCCCNC(=O)CCCC(=O)NCCCOC  cytotoxicity             -2.4
1   COc1ccccc1-c1nnc2sc(-c3cc4ccccc4o3)nn12  cytotoxicity             53.5
2  COc1ccc(NC(=O)Cn2nnc(-c3ccccc3NC(=O)c3cccs3)n2)cc1  cytotoxicity            -14.1
3  COc1ccc(C(=O)N2CCc3cc(OC)c(OC)cc3C2)cc1OC  cytotoxicity             -5.5
4  OC(CCCCN1CCCCC1)c1ccccc1 (configuration not stated)  cytotoxicity             -4.7

Q: For the compound CCOc1cc(C(=O)N2CCc3cc(OC)c(OC)cc3C2)ccc1OC(F)F , give its reported cytotoxicity.
A: 59.3

Q: Provide only the value of recorded cytotoxicity for CC1CCCCC1NC(=O)CCn1c(=O)oc2ccccc21 (configuration not stated)
A: -4

Q: Return cytotoxicity for the following compound: O=C(CSc1nc2ccccc2o1)c1ccccc1
A: -3.2

* * *

assay: HT1080 cell viability loss – fluorescence readout (AID 620); conditions: at 10 µM
In all, about 87,000 compounds went through this assay and about 360 (0.41%) were called active. Cut-off read from the data, not from the text of the source: active = cytotoxicity above about 50%; inactive = the rest. This is one part of a sample in which actives are shown more often than they occur.
A correct response names exactly one class from active, inactive

// below: answered compounds
>>> print(df.to_string())
                                   compound  assigned_label
0    COc1ccc(N2CCN(c3ncnc4nc[nH]c34)CC2)cc1        inactive
1  CCCC[C@@H]1C[C@H]1C(NC(=O)c1ccc(C(F)(F)F)cc1)c1ccc(C(=O)OC)cc1 (stereo partly drawn)        inactive

Q: For this compound, state the assay outcome: Cn1c(N)c(C(=O)COC(=O)c2cc(C(F)(F)F)nc3ccccc23)c(=O)n(Cc2ccccc2)c1=O
A: inactive

Q: Fill in: this test's call for COc1ccccc1N1CCN(c2nc(C)nc3c2oc2ccccc23)CC1 is ___
A: active

Q: Please indicate how the test categorized CC(C)(C)c1nc(CN2CCOCC2)ccc1O .
A: inactive

Q: Call for entry O=C(CSc1ncn(-c2ccccc2)n1)c1cccs1 :
A: inactive

Q: Assay outcome for CCN1C(=O)/C(=C/N2CCc3ccccc32)SC1=S : what was it?
A: inactive

Q: Tell me the recorded outcome of this test for CC(C)(C)NC(=O)c1ccccc1-c1nc(-c2ccccc2Cl)no1 .
A: inactive

Q: So what was the verdict on CCC(C)NC(=O)CNS(=O)(=O)c1ccc(C)cc1 (stereo not drawn) in this test?
A: inactive

Q: Name the outcome recorded for COc1ccc(-n2c(Cc3cccn3C)nnc2SCC(=O)N2CCCc3ccccc32)cc1 in the assay.
A: inactive

Q: State the result this test recorded for COc1ccc(NC(=O)c2ccco2)c(NC(=O)Cc2cccs2)c1 .
A: inactive

Q: Call for entry CC(C)NC(=O)c1ccccc1-c1nc(-c2ccccc2Cl)no1 :
A: active

Q: So what was the verdict on CCCCc1ccc(-c2nc(N)n[nH]2)cc1 in this test?
A: inactive

Q: I would be grateful if you could indicate the recorded call for Cc1cc2c(c(C)nn2-c2ccccc2)c(=O)o1 .
A: inactive

Q: What did the test return for COc1ccccc1N1CCN(c2ncnc3c2oc2ccccc23)CC1 ?
A: inactive

Q: I'd appreciate the recorded outcome for COc1cc(C2C(C#N)=C(C)NC3=C2C(=O)c2ccccc23)cc(OC)c1OC (stereo not drawn) from this test.
A: active

Q: Which outcome was assigned to Cc1nc2ccc(NC(=O)c3ccc(Cl)c(NC(=O)c4cccs4)c3)cc2s1 in this test?
A: inactive

Q: Please indicate how the test categorized Nc1cccc2cnccc12 .
A: inactive

* * *

test: HT1080 cell viability loss – fluorescence readout (AID 620); conditions: at 10 µM
Among all 87,000 compounds or so, about 360 (0.41%) were called active. Cut-off read from the data, not from the text of the source: active = cytotoxicity above about 50%; inactive = the rest. Shown is part of a subset that was picked to be rich in actives.
Choose one outcome from this list and give only that: class 1 (active), class 0 (inactive)

# count of solved cases: 8
>>> df
                                   compound  assigned_label
0  Cc1c(NC(=O)CSc2nc3ccccc3n2C)c(=O)n(-c2ccccc2)n1C         class 0
1  COc1ccc(S(=O)(=O)Cc2ccc(C(=O)N3CCN(c4cccc(C)c4)C(C)C3)o2)cc1 (centres undefined)         class 1
2  Cc1cccc(N2CCN(C(=O)c3ccc(CS(=O)(=O)c4ccccc4C)o3)CC2C)c1 (centres undefined)         class 1
3  COc1ccc(Cl)cc1NS(=O)(=O)c1ccc(S(=O)(=O)N2CCCC2)cc1         class 0
4  O=C(NCC(c1ccc(F)cc1)N1CCOCC1)c1ccc(Br)o1 (centres undefined)         class 0
5        CCOC(=O)c1ccccc1NS(=O)(=O)c1ccccc1         class 0
6     Cc1ccc(NC2=NC3(CCCCC3)N=C(N)N2)c(C)c1         class 0
7  CC(=O)N1[C@H](Cc2ccccc2)C=C[C@]1(C)C(=O)O         class 0

Q: Hey, what did the test say about CCOC(=O)N1CCN(C(=O)c2ccc(CS(=O)(=O)c3ccc(OC)cc3)o2)CC1 ?
A: class 0

Q: Entry CCn1cc(C(=O)NCc2cccs2)c(=O)c2ccc(C)nc21 : call = ?
A: class 0

* * *

experiment: HT1080 cell viability loss – fluorescence readout (AID 620); conditions: at 10 µM, stronger effect = higher value;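 further: cells exposed to compound overnight then 4 h with Alamar Blue; 0% = vehicle DMSO and 100% = killing control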
Hit rate of the full screen: of about 87,000 compounds, about 360 (0.41%) were called active. This excerpt belongs to a sample that is enriched for actives.
quantity: cytotoxicity (%)
Report the figure in % without appending any unit label.

The examples below pair each entry with its known result.
                                   compound      quantity  units_symbol  recorded_result
0     CC1=C/C(=N\OS(=O)(=O)c2ccccc2)C=CC1=O  cytotoxicity             %             35.8
1         O=C(Cc1cn2ccsc2n1)OCc1nc2ccccc2s1  cytotoxicity             %             -1.1
2  CCOC(=O)c1c(C)sc2c1N(C(=O)CN1CCOCC1)c1cc(Cl)ccc1S2  cytotoxicity             %             12.4
3     COc1ccccc1NC(=S)NNC(=O)c1ccc(Cl)cc1Cl  cytotoxicity             %               -4

Q: Identify measured cytotoxicity corresponding to Cn1c(SCc2ccccc2Cl)nc2ccccc21
A: 30.7

* * *

test: HT1080 cell viability loss – fluorescence readout (AID 620); settings: at 10 µM;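 further: cells exposed to compound overnight then 4 h with Alamar Blue; 0% = vehicle DMSO and 100% = killing control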
The whole screen tested about 87,000 compounds, of which about 360 (0.41%) were called active. Cut-off read from the data, not from the text of the source: active = cytotoxicity above about 50%; inactive = the rest. Many of the other results were omitted from the sample, so actives are more common in it than they were.
Thanks in advance; please answer with one of these: active, inactive

Q: Outcome? COc1ccc(OC)c(N2CC(O)=C(c3nc4ccccc4s3)C2=N)c1
A: inactive

* * *

experiment: HT1080 cell viability loss – fluorescence readout (AID 620); conditions: at 10 µM, stronger effect = higher value;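 further: cells exposed to compound overnight then 4 h with Alamar Blue; 0% = vehicle DMSO and 100% = killing control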
Hit rate of the full screen: of about 87,000 compounds, about 360 (0.41%) were called active. The full list was thinned out, with actives kept by preference.
quantity: cytotoxicity (%)
Give just the numeric value; % need not be written.

Observe how each entry below is paired with its result.
                                   compound      quantity  units_symbol  recorded_result
0  CCCCCCCC(=O)OCC(O)CO (centres undefined)  cytotoxicity             %             -0.9
1  Cc1ccc(C2CC(=O)Nc3cc4c(cc32)OCCO4)s1 (centres undefined)  cytotoxicity             %              7.9
2  CCn1c(SCc2ccccc2)nnc1-c1ccc(S(=O)(=O)N2CCCCC2)cc1  cytotoxicity             %             -8.1

Q: Identify the reported cytotoxicity for the following entry. COCCNC(=O)CN(Cc1ccc2c(c1)OCO2)C(=O)CCC(=O)Nc1nccs1
A: -8.1

Q: For the compound CCCCCCCCCC(=O)OCC(O)CO (centres undefined) , give its measured cytotoxicity value.
A: -10.7

Q: Find the measured cytotoxicity of O=C(NCCc1c[nH]c2ccccc12)c1cnc2sccn2c1=O and report it.
A: -1.9
